assay: Metabolic stability in rat liver microsomes assessed as compound remaining after 10 mins; assay type: ADME, Microsome; settings: read-out: Stability
endpoint-label: remaining at 10 min (%)

CN1CCN(C(C(=O)N2CCC[C@H]2C(=O)Nc2ccc(C#Cc3ccc(NC(=O)[C@@H]4CCCN4C(=O)C(c4ccccc4)N4CCN(C)CC4)cc3)cc2)c2ccccc2)CC1 (stereo in doubt; 5i.1)    100
CC(=O)N[C@H](C(=O)N1CCC[C@H]1C(=O)Nc1ccc(C#Cc2ccc(NC(=O)[C@@H]3CCCN3C(=O)[C@@H](NC(C)=O)c3ccccc3)cc2)cc1)c1ccccc1    100

###

tested on: Hepatitis C virus; test: Antiviral activity against Hepatitis C virus genotype 1a by ELISA; format: functional, organism-based, Hepacivirus hominis, subtype 1a
endpoint-label: pEC50
Remember, pEC50 is on a log scale: it is -log10 of the molar concentration.

Please report the recorded pEC50 for CC(=O)N(C)C(C(=O)N1CCC[C@H]1C(=O)Nc1ccc(C#Cc2ccc(NC(=O)[C@@H]3CCCN3C(=O)C(c3ccccc3)N(C)C(C)=O)cc2)cc1)c1ccccc1 (single isomer, unassigned; diastereomer 1) .
5.61

###

Listed compounds paired with reported EC50
test system: Hepatitis C virus; test: Antiviral activity against Hepatitis C virus genotype 4a; format: functional, organism-based, Hepacivirus hominis
Could you give me the number in nM? Just the number is fine.

O=C(Nc1ccc(C#Cc2ccc(NC(=O)[C@@H]3CCCN3C(=O)C(c3ccccc3)N3CCC(O)CC3)cc2)cc1)[C@@H]1CCCN1C(=O)C(c1ccccc1)N1CCC(O)CC1 (stereo in doubt; 5g.1)    0.042

Next compound, EC50 to be filled in.
Please report the recorded EC50 for O=C(Nc1ccc(/C=C/c2ccc(NC(=O)[C@@H]3CCCN3C(=O)Cc3ccccc3)cc2)cc1)[C@@H]1CCCN1C(=O)Cc1ccccc1 .
0.16

###

assay: Clearance in rat at 2 mg/kg, iv after 4 hrs; format: ADME, organism-based; parameters: dose 2 mg/kg, route intravenous; details: in vivo
endpoint-label: clearance (mL/min/kg)
Could you give me the number in mL/min/kg? Just the number is fine.

Please report the recorded clearance for CC(=O)N[C@H](C(=O)N1CCC[C@H]1C(=O)Nc1ccc(C#Cc2ccc(NC(=O)[C@@H]3CCCN3C(=O)[C@@H](NC(C)=O)c3ccccc3)cc2)cc1)c1ccccc1 .
13.3

###

assay: Permeability of the compound across human Caco2 cells; format: ADME, cell-based; settings: Caco-2, read-out: permeability
endpoint-label: Papp

CN1CCN(C(C(=O)N2CCC[C@H]2C(=O)Nc2ccc(C#Cc3ccc(NC(=O)[C@@H]4CCCN4C(=O)C(c4ccccc4)N4CCN(C)CC4)cc3)cc2)c2ccccc2)CC1 (stereo in doubt; 5i.1)    < 1.5 ×10⁻⁶ cm/s

Please report the recorded Papp for CC(=O)N[C@H](C(=O)N1CCC[C@H]1C(=O)Nc1ccc(C#Cc2ccc(NC(=O)[C@@H]3CCCN3C(=O)[C@@H](NC(C)=O)c3ccccc3)cc2)cc1)c1ccccc1 .
< 1.5 ×10⁻⁶ cm/s
